tested on: SK-OV-3; assay: MTT cytotoxicity assay, SK-OV-3; type: cell-based; conditions: Homo sapiens, 48 h, mean ± SD, three independent experiments
pIC50: −log10 of the molar value.
Each entry below lists one item and its recorded pIC50 value.
metric.name: pIC50

[
  {
    "compound": "Cc1ccccc1NC(=O)[C@@H](C)NC(=S)NC(=O)[C@]1(C)CCC[C@]2(C)c3ccc(C(C)C)cc3CCC12 (stereo partly drawn)",
    "study.system": "SK-OV-3",
    "metric.name": "pIC50",
    "number": 4.37
  },
  {
    "compound": "COc1ccccc1NC(=O)[C@@H](C)NC(=S)NC(=O)[C@]1(C)CCC[C@]2(C)c3ccc(C(C)C)cc3CCC12 (stereo partly drawn)",
    "study.system": "SK-OV-3",
    "metric.name": "pIC50",
    "number": 4.64
  },
  {
    "compound": "CC(C)c1ccc2c(c1)CCC1[C@](C)(C(=O)NC(=S)N[C@H](Cc3ccccc3)C(=O)Nc3ccccc3F)CCC[C@]21C (stereo partly drawn)",
    "study.system": "SK-OV-3",
    "metric.name": "pIC50",
    "number": 4.54
  },
  {
    "compound": "CC(C)c1ccc2c(c1)CCC1[C@](C)(C(=O)NC(=S)N[C@H](Cc3ccccc3)C(=O)Nc3ccc(Cl)cc3)CCC[C@]21C (stereo partly drawn)",
    "study.system": "SK-OV-3",
    "metric.name": "pIC50",
    "number": 4.73
  },
  {
    "compound": "CC(C)c1ccc2c(c1)CCC1[C@](C)(C(=O)NC(=S)N[C@H](C)C(=O)Nc3ccc(F)cc3)CCC[C@]21C (stereo partly drawn)",
    "study.system": "SK-OV-3",
    "metric.name": "pIC50",
    "number": 4.49
  },
  {
    "compound": "Cc1cc(C)cc(NC(=O)[C@@H](C)NC(=S)NC(=O)[C@]2(C)CCC[C@]3(C)c4ccc(C(C)C)cc4CCC23)c1 (stereo partly drawn)",
    "study.system": "SK-OV-3",
    "metric.name": "pIC50",
    "number": 4.48
  }
]

###

system: SK-OV-3; test: MTT cytotoxicity assay, SK-OV-3; type: cell-based; conditions: Homo sapiens, 48 h, mean ± SD, three independent experiments
pIC50: −log10 of the molar value.
metric.name: pIC50

[
  {
    "compound": "CC(C)c1ccc2c(c1)CCC1[C@](C)(C(=O)NC(=S)N[C@H](C)C(=O)Nc3ccc(Cl)cc3)CCC[C@]21C (stereo partly drawn)",
    "number": 4.44
  },
  {
    "compound": "CC(C)c1ccc2c(c1)CCC1[C@](C)(C(=O)NC(=S)N[C@H](C)C(=O)Nc3ccccc3F)CCC[C@]21C (stereo partly drawn)",
    "number": 4.50
  },
  {
    "compound": "CC(C)c1ccc2c(c1)CCC1[C@](C)(C(=O)NC(=S)N[C@H](C)C(=O)Nc3ccccc3Br)CCC[C@]21C (stereo partly drawn)",
    "number": 4.41
  },
  {
    "compound": "COc1cc(NC(=O)[C@@H](Cc2ccccc2)NC(=S)NC(=O)[C@]2(C)CCC[C@]3(C)c4ccc(C(C)C)cc4CCC23)cc(OC)c1OC (stereo partly drawn)",
    "number": 4.53
  },
  {
    "compound": "COc1ccccc1NC(=O)[C@@H](Cc1ccccc1)NC(=S)NC(=O)[C@]1(C)CCC[C@]2(C)c3ccc(C(C)C)cc3CCC12 (stereo partly drawn)",
    "number": 4.72
  },
  {
    "compound": "COc1ccc(NC(=O)[C@@H](Cc2ccccc2)NC(=S)NC(=O)[C@]2(C)CCC[C@]3(C)c4ccc(C(C)C)cc4CCC23)cc1 (stereo partly drawn)",
    "number": 4.70
  }
]

###

Tested on: SK-OV-3
Experiment: MTT cytotoxicity assay, SK-OV-3
Assay type: cell-based
Conditions: Homo sapiens, 48 h, mean ± SD, three independent experiments
Method: The in vitro cytotoxic potency of DHAA acyl-thiourea derivatives 8a–8o and 9a–9o were evaluated by 3-(4,5-dimethylthiazol-2-yl)-2,5-diphenyltetrazolium bromide (MTT) assay against HeLa, SK-OV-3 and MGC-803 tumor cell lines, with 5-FU as the positive control. General procedure for cytotoxic evaluation in vitro: HeLa, HepG2, SK-OV-3 and MGC-803 cells were seeded into 96-well microculture plates and allowed to adhere for 24 h, respectively. […] IC50 was evaluated by MTT tetrazolium dye assay. […]
pIC50: −log10 of the molar value.
Each entry below lists one item and its recorded pIC50 value.
metric.name: pIC50

[
  {
    "compound": "CC(C)c1ccc2c(c1)CCC1[C@](C)(C(=O)NC(=S)N[C@H](C)C(=O)Nc3ccccc3)CCC[C@]21C (stereo partly shown) [Compound 8a]",
    "study.system": "SK-OV-3",
    "number": 4.58
  },
  {
    "compound": "CC(C)c1ccc2c(c1)CCC1[C@](C)(C(=O)NC(=S)N[C@H](Cc3ccccc3)C(=O)Nc3ccccc3Br)CCC[C@]21C (stereo partly shown) [Compound 9j]",
    "study.system": "SK-OV-3",
    "number": 4.40
  },
  {
    "compound": "CC(C)c1ccc2c(c1)CCC1[C@](C)(C(=O)NC(=S)N[C@H](C)C(=O)Nc3ccc(Br)cc3)CCC[C@]21C (stereo partly shown) [Compound 8k]",
    "study.system": "SK-OV-3",
    "number": 4.39
  },
  {
    "compound": "CC(C)c1ccc2c(c1)CCC1[C@](C)(C(=O)NC(=S)N[C@H](C)C(=O)Nc3cccc4ccccc34)CCC[C@]21C (stereo partly shown) [Compound 8m]",
    "study.system": "SK-OV-3",
    "number": 4.31
  },
  {
    "compound": "CC(C)c1ccc2c(c1)CCC1[C@](C)(C(=O)NC(=S)N[C@H](Cc3ccccc3)C(=O)Nc3ccc(F)cc3)CCC[C@]21C (stereo partly shown) [Compound 9i]",
    "study.system": "SK-OV-3",
    "number": 4.58
  },
  {
    "compound": "CC(C)c1ccc2c(c1)CCC1[C@](C)(C(=O)NC(=S)N[C@H](C)C(=O)Nc3ccccn3)CCC[C@]21C (stereo partly shown) [Compound 8n]",
    "study.system": "SK-OV-3",
    "number": 4.60
  },
  {
    "compound": "CC(C)c1ccc2c(c1)CCC1[C@](C)(C(=O)NC(=S)N[C@H](Cc3ccccc3)C(=O)Nc3ccccn3)CCC[C@]21C (stereo partly shown) [Compound 9n]",
    "study.system": "SK-OV-3",
    "number": 4.71
  },
  {
    "compound": "Cc1ccccc1NC(=O)[C@@H](Cc1ccccc1)NC(=S)NC(=O)[C@]1(C)CCC[C@]2(C)c3ccc(C(C)C)cc3CCC12 (stereo partly shown) [Compound 9b]",
    "study.system": "SK-OV-3",
    "number": 4.73
  },
  {
    "compound": "COc1cc(NC(=O)[C@@H](C)NC(=S)NC(=O)[C@]2(C)CCC[C@]3(C)c4ccc(C(C)C)cc4CCC23)cc(OC)c1OC (stereo partly shown) [Compound 8o]",
    "study.system": "SK-OV-3",
    "number": 4.53
  },
  {
    "compound": "Cc1ccc(NC(=O)[C@@H](Cc2ccccc2)NC(=S)NC(=O)[C@]2(C)CCC[C@]3(C)c4ccc(C(C)C)cc4CCC23)cc1 (stereo partly shown) [Compound 9c]",
    "study.system": "SK-OV-3",
    "number": 4.79
  },
  {
    "compound": "Cc1cc(C)cc(NC(=O)[C@@H](Cc2ccccc2)NC(=S)NC(=O)[C@]2(C)CCC[C@]3(C)c4ccc(C(C)C)cc4CCC23)c1 (stereo partly shown) [Compound 9l]",
    "study.system": "SK-OV-3",
    "number": 4.50
  },
  {
    "compound": "CC(C)c1ccc2c(c1)CCC1[C@](C)(C(=O)NC(=S)N[C@H](Cc3ccccc3)C(=O)Nc3ccccc3Cl)CCC[C@]21C (stereo partly shown) [Compound 9d]",
    "study.system": "SK-OV-3",
    "number": 4.77
  },
  {
    "compound": "COc1ccc(NC(=O)[C@@H](C)NC(=S)NC(=O)[C@]2(C)CCC[C@]3(C)c4ccc(C(C)C)cc4CCC23)cc1 (stereo partly shown) [Compound 8g]",
    "study.system": "SK-OV-3",
    "number": 4.57
  }
]

###

test system: SK-OV-3; assay: MTT cytotoxicity assay, SK-OV-3; assay type: cell-based; conditions: Homo sapiens, 48 h, mean ± SD, three independent experiments
pIC50: −log10 of the molar value.
Each entry below lists one item and its recorded pIC50 value.
metric.name: pIC50

[
  {
    "compound": "Cc1ccc(NC(=O)[C@@H](C)NC(=S)NC(=O)[C@]2(C)CCC[C@]3(C)c4ccc(C(C)C)cc4CCC23)cc1 (stereo partly shown) [Compound 8c]",
    "metric.name": "pIC50",
    "number": 4.29
  },
  {
    "compound": "CC(C)c1ccc2c(c1)CCC1[C@](C)(C(=O)NC(=S)N[C@H](Cc3ccccc3)C(=O)Nc3ccc(Br)cc3)CCC[C@]21C (stereo partly shown) [Compound 9k]",
    "metric.name": "pIC50",
    "number": 4.33
  },
  {
    "compound": "O=c1[nH]cc(F)c(=O)[nH]1 [Compound 5-FU, 5-fluorouracil, reference compound]",
    "metric.name": "pIC50",
    "number": 4.52
  },
  {
    "compound": "CC(C)c1ccc2c(c1)CCC1[C@](C)(C(=O)NC(=S)N[C@H](Cc3ccccc3)C(=O)Nc3cccc4ccccc34)CCC[C@]21C (stereo partly shown) [Compound 9m]",
    "metric.name": "pIC50",
    "number": 4.82
  },
  {
    "compound": "CC(C)c1ccc2c(c1)CCC1[C@](C)(C(=O)NC(=S)N[C@H](C)C(=O)Nc3ccccc3Cl)CCC[C@]21C (stereo partly shown) [Compound 8d]",
    "metric.name": "pIC50",
    "number": 4.32
  },
  {
    "compound": "CC(C)c1ccc2c(c1)CC[C@H]1[C@](C)(C(=O)O)CCC[C@]21C [DHA, dehydroabietic acid]",
    "metric.name": "pIC50",
    "number": 4.06
  },
  {
    "compound": "CC(C)c1ccc2c(c1)CCC1[C@](C)(C(=O)NC(=S)N[C@H](Cc3ccccc3)C(=O)Nc3ccccc3)CCC[C@]21C (stereo partly shown) [Compound 9a]",
    "metric.name": "pIC50",
    "number": 4.77
  }
]
